- Test system: Human coronavirus OC43
- Assay type: functional, organism-based
The source made the active and inactive calls. Non-standard residues stand in square brackets, D forms with d. Residues, ends and D or L forms follow the SMILES beside them. *: point of attachment. AllylGly = C=CC[C@H](N)C(=O)O; Acryloyl = C=CC(=O)*; NHBn = c1ccc(CN*)cc1; ClAc = O=C(CCl)*
Respond using exactly one of the listed classes: active, inactive

Worked examples, 2 compounds total:
CCN(CC)CCCC(C)Nc1ccnc2cc(Cl)ccc12 (stereo not drawn): active
O=C(CS)N[C@@H](Cc1ccccc1)C(=O)N[C@@H](Cc1c[nH]c2ccccc12)C(=O)NCc1ccccc1: active

Hey, what did the test say about C=CC[C@H](NC(=O)CCl)C(=O)N[C@@H](Cc1c[nH]c2ccccc12)C(=O)NCc1ccccc1 (ClAc-[AllylGly]-Trp-NHBn) ?
active

Next up: O=C(CCl)N[C@@H](Cc1ccc(O)cc1)C(=O)N[C@@H](Cc1c[nH]c2ccccc12)C(=O)NCc1ccccc1 (ClAc-Tyr-Trp-NHBn)
inactive

Thanks! And COC(=O)[C@H](CCC(N)=O)NC(=O)[C@H](Cc1c[nH]c2ccccc12)NC(=O)[C@H](CC(C)C)NC(=O)CCl (ClAc-Leu-Trp-Gln-OMe) ?
active

Please answer likewise for CC(C)C[C@H](NC(=O)CCl)C(=O)N[C@@H](Cc1c[nH]c2ccccc12)C(=O)NCc1ccccc1
active

Here is the next compound: C=CC(=O)N[C@@H](Cc1ccccc1)C(=O)N[C@@H](Cc1c[nH]c2ccccc12)C(=O)NCc1ccccc1 (Acryloyl-Phe-Trp-NHBn)
active

Also check C=CC(=O)N[C@@H](CC(C)C)C(=O)N[C@@H](Cc1c[nH]c2ccccc12)C(=O)NCc1ccccc1
active

###

- Test system: SARS-CoV-2
- assay-details: microbe, parasite or virus in culture
- condition-label: Severe acute respiratory syndrome coronavirus 2, Wuhan/WIV04/2020, Vero
- Description: Antiviral activity against SARS-CoV-2 Wuhan/WIV04/2020 infected in African green monkey Vero cells assessed as reduction in virus-induced cytopathic effect incubated for 6 to 7 days by microscopic analysis
Non-standard residues stand in square brackets, D forms with d. Residues, ends and D or L forms follow the SMILES beside them. *: point of attachment. AllylGly = C=CC[C@H](N)C(=O)O; Acryloyl = C=CC(=O)*; NHBn = c1ccc(CN*)cc1; ClAc = O=C(CCl)*
Cut-off 0.3 µM on EC50: below means 1 (yes), at or above means 0 (no).

Observe how each entry below is paired with its result.
CC(C)C[C@H](NC(=O)[C@H](Cc1c[nH]c2ccccc12)NC(=O)CCl)C(=O)NCc1ccccc1 (ClAc-Trp-Leu-NHBn): 1 (yes)
CC(C)C[C@@H](C(=O)NCC12CC3CC(CC(C3)C1)C2)N(Cc1ccccc1)C(=O)CCl: 0 (no)
CC(C)C[C@H](NC(=O)CCl)C(=O)N[C@@H](Cc1c[nH]c2ccccc12)C(=O)NCc1ccccc1: 1 (yes)

Please let me know if O=C(CCl)NCC(=O)N[C@@H](Cc1c[nH]c2ccccc12)C(=O)NCc1ccccc1 (ClAc-Gly-Trp-NHBn) shows EC50 below 0.3 µM.
1 (yes)

What about O=C(CCl)N[C@@H](Cc1ccccc1)C(=O)N[C@@H](Cc1c[nH]c2ccccc12)C(=O)NCc1ccccc1 (ClAc-Phe-Trp-NHBn) ?
1 (yes)

# iterate: CC(C)C(=O)OC[C@H]1O[C@@H](n2ccc(NO)nc2=O)[C@H](O)[C@@H]1O
0 (no)

Also need CC(C)C[C@H](NC(=O)CCl)C(=O)N[C@H](Cc1c[nH]c2ccccc12)C(=O)NCc1ccccc1 , thanks.
0 (no)

Now try C=CC(=O)N[C@@H](Cc1ccccc1)C(=O)N[C@@H](Cc1c[nH]c2ccccc12)C(=O)NCc1ccccc1 (Acryloyl-Phe-Trp-NHBn) .
0 (no)

// next record C=CC[C@H](NC(=O)CCl)C(=O)N[C@@H](Cc1c[nH]c2ccccc12)C(=O)NCc1ccccc1 (ClAc-[AllylGly]-Trp-NHBn)
0 (no)

One more compound: CC(C)C[C@H](NC(=O)CCl)C(=O)N[C@@H](Cc1ccccc1)C(=O)N[C@@H](Cc1c[nH]c2ccccc12)C(=O)NCc1ccccc1 (ClAc-Leu-Phe-Trp-NHBn)
0 (no)

What do you have for COC(=O)[C@H](CCC(N)=O)NC(=O)[C@H](Cc1c[nH]c2ccccc12)NC(=O)[C@H](CC(C)C)NC(=O)CCl (ClAc-Leu-Trp-Gln-OMe) ?
0 (no)

Another: C=CC[C@H](NC(=O)CCl)C(=O)N[C@@H](CC=C)C(=O)N[C@H](CNCc1ccccc1)Cc1c[nH]c2ccccc12
0 (no)
